Data provenance: patent US11008317B2

# study system: myeloperoxidase (Homo sapiens, UniProt P05164)
# Sequence (P05164 49-745): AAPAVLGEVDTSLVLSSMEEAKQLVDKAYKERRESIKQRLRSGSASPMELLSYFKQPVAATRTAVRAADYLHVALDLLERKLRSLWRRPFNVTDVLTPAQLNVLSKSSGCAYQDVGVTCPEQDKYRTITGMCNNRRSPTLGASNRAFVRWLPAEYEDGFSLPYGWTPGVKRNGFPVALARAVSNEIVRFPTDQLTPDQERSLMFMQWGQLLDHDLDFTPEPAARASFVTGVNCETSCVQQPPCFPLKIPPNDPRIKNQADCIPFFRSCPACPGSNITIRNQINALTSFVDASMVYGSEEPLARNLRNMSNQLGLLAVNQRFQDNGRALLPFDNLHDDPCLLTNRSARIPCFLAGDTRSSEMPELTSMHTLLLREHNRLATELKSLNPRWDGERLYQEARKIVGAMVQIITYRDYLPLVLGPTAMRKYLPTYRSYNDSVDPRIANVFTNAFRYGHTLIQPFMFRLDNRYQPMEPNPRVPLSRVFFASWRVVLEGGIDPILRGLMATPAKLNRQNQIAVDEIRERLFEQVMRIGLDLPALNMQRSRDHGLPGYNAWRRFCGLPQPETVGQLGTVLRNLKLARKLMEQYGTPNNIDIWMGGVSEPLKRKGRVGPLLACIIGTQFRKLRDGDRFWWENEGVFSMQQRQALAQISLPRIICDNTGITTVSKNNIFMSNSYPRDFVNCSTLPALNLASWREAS
# procedure details: MPO Chlorination Assay (APF Assay)
# Assay type: biochemical
# assay conditions: potency range class, read-out: APF Assay IC50 value

{"columns": ["compound", "study system", "IC50"],
 "data": [
  ["Nc1cc(C(CCNC2CC(c3ccccc3)C2)c2ccccc2)c2nn[nH]c2n1 (single isomer, unassigned) [Example 81]", "myeloperoxidase (Homo sapiens, UniProt P05164)", "1 to 100 nM"],
  ["COc1ccncc1[C@H]1CC[C@@H](NCCC(c2ccccc2)c2cc(N)nc3[nH]nnc23)CC1 (stereo partly drawn) [Example 138]", "myeloperoxidase (Homo sapiens, UniProt P05164)", "1000 to 10000 nM"],
  ["Nc1cc(C(CCNC2CCC(c3cccnc3)CC2)c2ccccc2)c2nn[nH]c2n1 (stereo not drawn) [Example 132]", "myeloperoxidase (Homo sapiens, UniProt P05164)", "1000 to 10000 nM"],
  ["Nc1cc(C(CNCC(F)(F)c2ccccc2)c2ccccc2)c2nn[nH]c2n1 (stereo not drawn) [Example 226]", "myeloperoxidase (Homo sapiens, UniProt P05164)", "101 to 999 nM"],
  ["Nc1cc([C@H](Cc2nc3cccc(-c4ccccc4)c3[nH]2)c2ccccc2)c2nn[nH]c2n1 [Example 238]", "myeloperoxidase (Homo sapiens, UniProt P05164)", "1 to 100 nM"],
  ["Nc1cc([C@H](Cc2nc3c(-c4ccccc4Cl)cccc3[nH]2)c2ccccc2)c2nn[nH]c2n1 [Example 260]", "myeloperoxidase (Homo sapiens, UniProt P05164)", "101 to 999 nM"],
  ["Nc1cc(C(CCN[C@H]2CCc3cc(F)ccc32)c2ccccc2)c2nn[nH]c2n1 (stereo partly drawn) [Example 58]", "myeloperoxidase (Homo sapiens, UniProt P05164)", "1 to 100 nM"],
  ["CC1CC(NCCC(c2ccccc2)c2cc(N)nc3[nH]nnc23)CCN1c1ccccc1 (stereo not drawn) [Example 131]", "myeloperoxidase (Homo sapiens, UniProt P05164)", "1 to 100 nM"],
  ["Nc1cc(C(CCNC2CC(c3ccccc3)C2)c2ccccc2)c2nn[nH]c2n1 (single isomer, unassigned) [Example 80]", "myeloperoxidase (Homo sapiens, UniProt P05164)", "1 to 100 nM"],
  ["Nc1cc([C@H](CCCN2CCCC(c3ccccc3)CC2)c2ccccc2)c2nn[nH]c2n1 (stereo partly drawn) [Example 215]", "myeloperoxidase (Homo sapiens, UniProt P05164)", "1 to 100 nM"],
  ["N#Cc1ccc(-c2ccc3nc(C[C@H](c4ccccc4)c4cc(N)nc5[nH]nnc45)[nH]c3c2)cc1 [Example 255]", "myeloperoxidase (Homo sapiens, UniProt P05164)", "1 to 100 nM"],
  ["COC(=O)c1cccc(C(CCN[C@H]2CC[C@H](c3ccccc3)CC2)c2cc(N)nc3[nH]nnc23)c1 (stereo partly drawn) [Example 163]", "myeloperoxidase (Homo sapiens, UniProt P05164)", "1 to 100 nM"],
  ["Nc1cc(C(CCNC2c3ccccc3CC2c2ccccc2)c2ccccc2)c2nn[nH]c2n1 (stereo not drawn) [Example 46]", "myeloperoxidase (Homo sapiens, UniProt P05164)", "101 to 999 nM"],
  ["Nc1cc(C(Cc2ccc(O)cc2)c2ccccc2)c2nn[nH]c2n1 (stereo not drawn) [Example 229]", "myeloperoxidase (Homo sapiens, UniProt P05164)", "101 to 999 nM"],
  ["CCCCC12CCC(NCCC(c3ccccc3)c3cc(N)nc4[nH]nnc34)(CC1)CC2 (stereo not drawn) [Example 130]", "myeloperoxidase (Homo sapiens, UniProt P05164)", "1 to 100 nM"],
  ["N#CC1(c2ccccc2)CCC(NCCC(c2ccccc2)c2cc(N)nc3[nH]nnc23)CC1 (stereo not drawn) [Example 177]", "myeloperoxidase (Homo sapiens, UniProt P05164)", "1 to 100 nM"],
  ["CC(C)(C)C1CCC(NCCC(c2ccccc2)c2cc(N)nc3[nH]nnc23)CC1 (stereo not drawn) [Example 96]", "myeloperoxidase (Homo sapiens, UniProt P05164)", "101 to 999 nM"],
  ["Nc1cc([C@H](Cc2nc3ccc(Br)cc3s2)c2ccccc2)c2nn[nH]c2n1 [Example 263]", "myeloperoxidase (Homo sapiens, UniProt P05164)", "101 to 999 nM"],
  ["Nc1cc(C(CCNC2(Cc3ccccc3)CCC(c3ccccc3)CC2)c2ccccc2)c2nn[nH]c2n1 (stereo not drawn) [Example 142]", "myeloperoxidase (Homo sapiens, UniProt P05164)", "101 to 999 nM"],
  ["Nc1cc(C(Cc2ccccn2)c2ccccc2)c2nn[nH]c2n1 (stereo not drawn) [Example 38]", "myeloperoxidase (Homo sapiens, UniProt P05164)", "101 to 999 nM"],
  ["Nc1cc([C@H](Cc2nc3ccc(-c4ccc(Cl)cc4)cc3[nH]2)c2ccccc2)c2nn[nH]c2n1 [Example 250]", "myeloperoxidase (Homo sapiens, UniProt P05164)", "1 to 100 nM"],
  ["Nc1cc(C(CCNCc2ccccc2Oc2ccccc2)c2ccccc2)c2nn[nH]c2n1 (stereo not drawn) [Example 74]", "myeloperoxidase (Homo sapiens, UniProt P05164)", "1 to 100 nM"],
  ["Nc1cc(C(CCNC2CCCc3ccccc32)c2ccccc2)c2nn[nH]c2n1 (stereo not drawn) [Example 25]", "myeloperoxidase (Homo sapiens, UniProt P05164)", "1 to 100 nM"],
  ["Nc1cc(C(CCN[C@H]2CCc3c(Cl)cccc32)c2ccccc2)c2nn[nH]c2n1 (stereo partly drawn) [Example 73]", "myeloperoxidase (Homo sapiens, UniProt P05164)", "1 to 100 nM"],
  ["Nc1cc(C(CCNC(Cc2ccccc2)c2ccccc2)c2ccccc2)c2nn[nH]c2n1 (stereo not drawn) [Example 45]", "myeloperoxidase (Homo sapiens, UniProt P05164)", "101 to 999 nM"],
  ["Nc1cc(C(CCN[C@@H]2CCc3ccc(C(F)(F)F)cc32)c2ccccc2)c2nn[nH]c2n1 (stereo partly drawn) [Example 124]", "myeloperoxidase (Homo sapiens, UniProt P05164)", "101 to 999 nM"],
  ["Nc1cc(C(CNCCc2ccccc2)c2ccccc2)c2nn[nH]c2n1 (stereo not drawn) [Example 228]", "myeloperoxidase (Homo sapiens, UniProt P05164)", "1000 to 10000 nM"],
  ["Nc1cc(C(CCN[C@@H]2CCc3c(Cl)cccc32)c2ccccc2)c2nn[nH]c2n1 (stereo partly drawn) [Example 65]", "myeloperoxidase (Homo sapiens, UniProt P05164)", "101 to 999 nM"],
  ["Nc1cc(C(CCNC2CCC(c3ccc(F)cc3)CC2)c2ccccc2)c2nn[nH]c2n1 (stereo not drawn) [Example 112]", "myeloperoxidase (Homo sapiens, UniProt P05164)", "101 to 999 nM"],
  ["Nc1cc(C(CCC(O)Cc2ccccc2)c2ccccc2)c2nn[nH]c2n1 (stereo not drawn) [Example 234]", "myeloperoxidase (Homo sapiens, UniProt P05164)", "101 to 999 nM"],
  ["COc1ccc(CNCCC(c2ccccc2)c2cc(N)nc3[nH]nnc23)cc1 (stereo not drawn) [Example 175]", "myeloperoxidase (Homo sapiens, UniProt P05164)", "101 to 999 nM"],
  ["N#Cc1cc(-c2ccccc2)c2nc(C[C@H](c3ccccc3)c3cc(N)nc4[nH]nnc34)[nH]c2c1 [Example 254]", "myeloperoxidase (Homo sapiens, UniProt P05164)", "1 to 100 nM"],
  ["CC(C)(C)CNCCC(c1ccccc1)c1cc(N)nc2[nH]nnc12 (stereo not drawn) [Example 20]", "myeloperoxidase (Homo sapiens, UniProt P05164)", "1000 to 10000 nM"]
]}

###

# study system: UniProt P05164
# procedure details: MPO Chlorination Assay (APF Assay)
# Assay type: biochemical
# assay conditions: potency range class, read-out: APF Assay IC50 value
attribute measured: IC50

{"columns": ["molecule", "attribute measured", "measured"],
 "data": [
  ["Nc1cc(C(CCN[C@H]2CC[C@H](c3ccncc3)CC2)c2ccccc2)c2nn[nH]c2n1 (some centres unmarked) [Example 139]", "IC50", "1 to 100 nM"],
  ["Cn1c(C[C@H](c2ccccc2)c2cc(N)nc3[nH]nnc23)nc2cc(-c3ccccc3)ccc21 [Example 258]", "IC50", "101 to 999 nM"],
  ["NC(=O)CN(CC[C@H](c1ccccc1)c1cc(N)nc2[nH]nnc12)C12CCC(c3ccccc3)(CC1)CC2 [Example 190]", "IC50", "1 to 100 nM"],
  ["CC1C[C@@H](NCCC(c2ccccc2)c2cc(N)nc3[nH]nnc23)c2ccccc21 (some centres unmarked) [Example 88]", "IC50", "101 to 999 nM"],
  ["N#Cc1cccc(-c2cccc3[nH]c(C[C@H](c4ccccc4)c4cc(N)nc5[nH]nnc45)nc23)c1 [Example 252]", "IC50", "1 to 100 nM"]
]}
